assay: qHTS Assay for Lipid Storage Modulators (AID 1519); details: Drosophila S3 cells, BODIPY lipid droplet/cell ratio, laser cytometry; measured here: lipid channel max response; cells loaded with oleic acid
Records with an inconclusive call do not appear.
measured.quantity: max response
Answers without a unit are incomplete; give the number and then its unit.

**Q:** What max response value was documented for this molecule, CC(=O)OCC(=O)[C@]1(O)C(C)CC2C3CCC4=CC(=O)C=C[C@@]4(C)[C@]3(F)C(O)C[C@@]21C (stereo partly drawn) ?
**A:** 2.72%

**Q:** Quick one: max response of COc1ccc(C(=O)c2ccc(O)cc2)c(O)c1O ?
**A:** 8.25%

**Q:** # input molecule: COC(=O)Oc1ccccc1C(=O)O ; wanted: its max response
**A:** 21.1%

----------
test: qHTS Assay for Lipid Storage Modulators (AID 1519); conditions: Drosophila S3 cells, BODIPY lipid droplet/cell ratio, laser cytometry; measured here: cell count channel max response; cells loaded with oleic acid
Inconclusive results are not listed.
Record form. Attribute: max response. Fill in for each entry.
Quick reminder: number only, in %, skip the unit.

**Q:** // max response lookup, key: CC1OC(OCC2OC(Oc3c(-c4ccc(O)c(O)c4)oc4cc(O)cc(O)c4c3=O)C(O)C(O)C2O)C(O)C(O)C1O (stereo unspecified)
**A:** -20.3

**Q:** Quick check: max response of COc1cc(O)ccc1C(C)=O ?
**A:** 24.4

**Q:** Would you mind telling me what max response value was observed for O=C1OCCN1/N=C\c1ccc([N+](=O)[O-])o1 ?
**A:** -13.3

**Q:** Which max response value is on record for CC#C[C@@]1(O)CC[C@H]2[C@@H]3CCC4=CC(=O)CCC4=C3[C@H](c3ccc(N(C)C)cc3)C[C@]21C ?
**A:** -7.59

**Q:** Bench note: what max response did COc1c(O)cc(O)cc1O show?
**A:** 3.65

**Q:** State the recorded max response for this entry: CCOC(=O)[C@H](CCc1ccccc1)N[C@@H](C)C(=O)N1[C@H](C(=O)O)C[C@H]2CCC[C@@H]21
**A:** -8.48

**Q:** # lookup: max response of CC(=O)OC1CCC2(O)CC1(C)CCC1C2CC1(C)C (stereo unspecified)
**A:** 16.4

**Q:** Consider the compound shown here: CC1CCC(C(C)(C)O)CC2=C1CCC2C (stereo unspecified) What is its recorded max response?
**A:** 9.89

**Q:** Consider the compound C=C1C[C@@]23C[C@@]1(O)CC[C@@H]2[C@]12C=C[C@@H](O)[C@](C)(C(=O)O1)[C@@H]2[C@@H]3C(=O)O and give its measured max response.
**A:** 0.496

**Q:** Which max response is reported for this compound? O=C(O)C1=C[C@@H](O)[C@@H](O)[C@H](O)C1
**A:** 13.7

**Q:** Given CC(CCC(=O)O)C1CCC2C3CC[C@@H]4CCCC[C@@]4(C)C3CC[C@@]12C (stereo partly specified) , state its recorded max response.
**A:** 13.8

**Q:** Form field: reported max response of CC(=O)OCCC(C)CCC=C(C)C (stereo unspecified)
**A:** 4.67

**Q:** // max response lookup, key: CC(=O)OC1CC(OC(C)=O)[C@]2(C)C(CC(=O)[C@]3(C)C2CC[C@@]2(C)C(c4ccoc4)OC(=O)C4O[C@@]423)C1(C)C (stereo partly specified)
**A:** 11.4

**Q:** Endpoint output: max response of Nc1nc2ncc(CNc3ccc(C(=O)NC(CCC(=O)O)C(=O)O)cc3)nc2c(=O)[nH]1 (stereo unspecified) . Value?
**A:** 16.9

**Q:** Need max response of CC(C)=CCC[C@](C)(O)C1CC=C(C)CC1 (stereo partly specified) , thanks.
**A:** -2.85

**Q:** Any idea what max response was measured for CCCCCC1C(=O)CCC1CC(=O)O (stereo unspecified) ?
**A:** 21.6
